Hello, the source for this data is DBAASP, in case you need it.

Tested on: Escherichia coli KCTC 1682
REPORTED_PROPERTY: MIC (µM)

COMPOUND | REPORTED_PROPERTY | ASSAY_VALUE
NC(=O)[C@H](CCCN=C(N)N)NC(=O)[C@H](Cc1c[nH]c2ccccc12)NC(=O)[C@H](CCCN=C(N)N)NC(=O)[C@H](Cc1c[nH]c2ccccc12)NC(=O)[C@H](CCCN=C(N)N)NC(=O)[C@@H](N)Cc1c[nH]c2ccccc12 [WRWRWR] | MIC | 3.83

----------
Test system: Streptococcus mutans

CHEMICAL_STRING | MIC
CC(C)C[C@H](NC(=O)[C@H](CC(C)C)NC(=O)[C@H](CCCN=C(N)N)NC(=O)[C@H](Cc1cnc[nH]1)NC(=O)[C@@H](NC(=O)[C@H](CCCN=C(N)N)NC(=O)CNC(=O)[C@@H](NC(=O)[C@@H]1CCCN1)C(C)C)C(C)C)C(=O)N[C@@H](CCCN=C(N)N)C(=O)N[C@@H](CCCCN)C(=O)O | 24 µM
CC[C@H](C)[C@H](NC(=O)[C@H](CO)NC(=O)[C@H](CCCCN)NC(=O)[C@H](Cc1ccccc1)NC(=O)[C@H](CCCCN)NC(=O)[C@H](CCCCN)NC(=O)[C@H](CC(C)C)NC(=O)[C@@H]1CCCN1C(=O)[C@@H](NC(=O)[C@H](CCCCN)NC(=O)[C@@H](NC(=O)[C@@H](NC(=O)[C@H](C)N)C(C)C)C(C)C)C(C)C)C(=O)N[C@@H](CCCN=C(N)N)C(=O)N[C@@H](CCC(=O)O)C(=O)O | 17.2 µM
CC[C@H](C)[C@H](NC(=O)[C@H](CCC(N)=O)NC(=O)[C@H](CC(N)=O)NC(=O)[C@H](Cc1ccccc1)NC(=O)[C@@H](NC(=O)[C@H](CCC(N)=O)NC(=O)[C@H](CC(C)C)NC(=O)[C@H](CC(C)C)NC(=O)[C@@H](N)CCCCN)[C@@H](C)O)C(=O)N[C@@H](Cc1ccccc1)C(=O)N[C@@H](CCCN=C(N)N)C(=O)O | ≥ 88.8 µM

----------
Tested on: Staphylococcus aureus ATCC 6538
Test: ≥ marks a high value that may be exact or a test limit, other limits are often not marked, values filed in µg/mL are converted to µM
One threshold, 4 µM, splits the recorded MIC values: lower ones are fulfilled, equal or higher ones are not fulfilled.

COMPOUND | CLASS_NAME
CC(C)C[C@H](NC(=O)[C@H](CC(C)C)NC(=O)[C@H](CCCCN)NC(=O)[C@H](CCCCN)NC(=O)[C@H](C)NC(=O)[C@H](CC(C)C)NC(=O)[C@H](CCCCN)NC(=O)[C@H](CCCCN)NC(=O)[C@H](C)NC(=O)[C@@H](N)Cc1ccccc1)C(N)=O [FAKKLAKKLL] | not fulfilled
CC(C)C[C@H](NC(=O)[C@H](CCCCN)NC(=O)[C@H](C)NC(=O)[C@H](CCCCN)NC(=O)[C@H](C)NC(=O)[C@H](CC(C)C)NC(=O)[C@H](CCCCN)NC(=O)[C@H](C)NC(=O)[C@H](CC(C)C)NC(=O)[C@H](CC(C)C)NC(=O)[C@H](CCCCN)NC(=O)[C@H](C)NC(=O)[C@@H](N)Cc1ccccc1)C(N)=O [FAKLLAKLAKAKL] | not fulfilled
CC(C)[C@H](NC(=O)[C@H](CCCCN)NC(=O)[C@H](Cc1ccccc1)NC(=O)[C@@H](NC(=O)[C@@H](NC(=O)[C@H](CCCCN)NC(=O)[C@@H](N)CCCCN)C(C)C)C(C)C)C(=O)N[C@@H](CCCCN)C(=O)N[C@@H](Cc1ccccc1)C(=O)N[C@@H](CCCCN)C(=O)N[C@@H](CCCCN)C(=O)N[C@@H](CCCCN)C(N)=O [KKVVFKVKFKKK] | fulfilled
CC[C@H](C)[C@H](NC(=O)CN)C(=O)N[C@@H](Cc1cnc[nH]1)C(=O)N[C@@H](CC(=O)O)C(=O)N[C@H](C(=O)N[C@@H](CC(C)C)C(=O)N[C@@H](C)C(=O)N[C@@H](Cc1ccc(O)cc1)C(=O)NCC(=O)N[C@@H](CCCCN)C(=O)N1CCC[C@H]1C(=O)N[C@@H](CO)C(N)=O)[C@@H](C)CC [GIHDILAYGKPS] | not fulfilled
CC[C@H](C)[C@H](NC(=O)[C@@H](NC(=O)[C@@H](NC(=O)[C@H](CC(=O)O)NC(=O)[C@H](Cc1ccccc1)NC(=O)[C@H](CC(C)C)NC(=O)CN)C(C)C)C(C)C)C(=O)NCC(=O)NCC(=O)N[C@@H](CC(C)C)C(=O)O [GLFDVVIGGL] | not fulfilled
CC[C@H](C)[C@H](NC(=O)CN)C(=O)N[C@@H](Cc1cnc[nH]1)C(=O)N[C@@H](CC(=O)O)C(=O)N[C@H](C(=O)N[C@@H](CC(C)C)C(=O)N[C@@H](CCCCN)C(=O)N[C@@H](Cc1ccc(O)cc1)C(=O)NCC(=O)N[C@@H](CCCCN)C(=O)N1CCC[C@H]1C(=O)N[C@@H](C)C(N)=O)[C@@H](C)CC [GIHDILKYGKPA] | not fulfilled
CC(C)C[C@H](NC(=O)[C@H](CC(C)C)NC(=O)[C@H](CCCCN)NC(=O)[C@H](CCCCN)NC(=O)[C@H](C)NC(=O)[C@H](CC(C)C)NC(=O)[C@H](CCCCN)NC(=O)[C@H](C)NC(=O)[C@H](CC(C)C)NC(=O)[C@H](CC(C)C)NC(=O)[C@H](CCCCN)NC(=O)[C@H](C)NC(=O)[C@@H](N)C(C)C)C(N)=O [VAKLLAKLAKKLL] | fulfilled
CC(C)C[C@H](NC(=O)[C@H](CC(C)C)NC(=O)[C@H](CCCCN)NC(=O)[C@H](CCCCN)NC(=O)[C@H](C)NC(=O)[C@H](CC(C)C)NC(=O)[C@H](CC(C)C)NC(=O)[C@H](CCCCN)NC(=O)[C@H](C)NC(=O)[C@@H](N)Cc1ccccc1)C(N)=O [FAKLLAKKLL] | not fulfilled
CC(C)C[C@H](NC(=O)[C@H](C)NC(=O)[C@H](Cc1ccccc1)NC(=O)[C@H](CCCCN)NC(=O)[C@H](CCCCN)NC(=O)[C@H](C)NC(=O)[C@H](CC(C)C)NC(=O)[C@H](CCCCN)NC(=O)[C@H](C)NC(=O)[C@H](Cc1ccccc1)NC(=O)[C@H](CC(C)C)NC(=O)[C@H](CCCCN)NC(=O)[C@H](C)NC(=O)[C@@H](N)Cc1ccccc1)C(N)=O [FAKLFAKLAKKFAL] | not fulfilled
CC(C)[C@H](NC(=O)[C@H](CCCCN)NC(=O)[C@H](Cc1ccccc1)NC(=O)[C@@H](NC(=O)[C@@H](NC(=O)[C@H](CCCCN)NC(=O)[C@@H](N)CCCCN)C(C)C)C(C)C)C(=O)N[C@@H](CCCCN)C(=O)N[C@@H](Cc1ccccc1)C(=O)N[C@@H](CCCCN)C(=O)N[C@@H](CCCCN)C(N)=O [KKVVFKVKFKK] | fulfilled
CC(C)C[C@H](NC(=O)[C@H](CC(C)C)NC(=O)[C@H](CCCCN)NC(=O)[C@H](CCCCN)NC(=O)[C@H](C)NC(=O)[C@H](CC(C)C)NC(=O)[C@H](CCCCN)NC(=O)[C@H](C)NC(=O)[C@H](CC(C)C)NC(=O)[C@H](CC(C)C)NC(=O)[C@H](CCCCN)NC(=O)[C@H](C)NC(=O)[C@@H](N)Cc1ccccc1)C(N)=O [FAKLLAKLAKKLL] | fulfilled

----------
Entries below carry reported MIC on Staphylococcus aureus ATCC 25923.

CHEMICAL_STRING | MIC [µM]
CC[C@H](C)[C@H](N)C(=O)N[C@@H](CC(N)=O)C(=O)N[C@@H](CC(C)C)C(=O)N[C@@H](CCCCN)C(=O)N[C@@H](C)C(=O)N[C@H](C(=O)N[C@@H](C)C(=O)N[C@@H](C)C(=O)N[C@@H](CC(C)C)C(=O)N[C@@H](C)C(=O)N[C@@H](CCCCN)C(=O)N[C@@H](CCCCN)C(=O)N[C@@H](CC(C)C)C(=O)N[C@@H](CC(C)C)C(=O)O)[C@@H](C)CC | 3.38
CC[C@H](C)[C@H](NC(=O)CN)C(=O)N[C@@H](CC(C)C)C(=O)NCC(=O)N[C@@H](CCCCN)C(=O)N[C@@H](CC(C)C)C(=O)N[C@@H](Cc1c[nH]c2ccccc12)C(=O)N[C@@H](CCCCN)C(=O)NCC(=O)N[C@H](C(=O)N[C@@H](CCCCN)C(=O)N[C@@H](CO)C(=O)N[C@H](C(=O)N[C@@H](Cc1ccccc1)C(N)=O)[C@@H](C)CC)C(C)C | 8.09
CC[C@H](C)[C@H](NC(=O)[C@H](CCCCN)NC(=O)[C@H](CCCCN)NC(=O)[C@H](CC(C)C)NC(=O)[C@H](CCCN=C(N)N)NC(=O)[C@H](Cc1c[nH]c2ccccc12)NC(=O)[C@H](CCCN=C(N)N)NC(=O)[C@@H](NC(=O)[C@H](CCCCN)NC(=O)[C@H](Cc1c[nH]c2ccccc12)NC(=O)[C@H](CCCN=C(N)N)NC(=O)[C@H](CC(C)C)NC(=O)[C@H](CCCN=C(N)N)NC(=O)[C@H](CCCN=C(N)N)NC(=O)[C@H](Cc1ccccc1)NC(=O)[C@@H](N)CCCN=C(N)N)[C@@H](C)O)C(N)=O | 32
